assay: Thermodynamic solubility test; assay type: physicochemical; settings: buffer solution, 37 °C, pH 7.4, aqueous buffer, thermodynamic from solid, buffer solution pH 7.4, 37° C., stirring about 500 rpm

[
  {
    "compound": "NCCCCCC(O)(P(=O)([O-])O)P(=O)(O)O.[Na+] [form F, sodium neridronate]",
    "solubility thermodynamic at 24 h / mg/mL": 93.7
  }
]

// provenance: patent US10815257B2
